system: CHP-212 (Neuroblastoma); assay: combination Emax (second highest fraction inhibited in the dose matrix, 72 h); higher = more inhibition; extreme values may be limits of the assay
Known combination Emax of a selection of compounds

COMPOUND | combination Emax
Cc1c2c(nn1C)CSCc1cc(n(C)n1)CSc1cc(c3ccccc3c1)OCCCc1c(C(=O)O)n(C)c3c-2c(Cl)ccc13 [AZD5991] + CN(C)CCCOc1ccc(-c2ccc3ncc4c(c3c2)n(C2CCOCC2)c(=O)n4C)cn1 [AZD0156] (first compound max 1 µM, 7x7, partner max 1 µM) | 0.837
CC1(C)CCC(CN2CCN(c3ccc(C(=O)NS(=O)(=O)c4ccc(NCC5CCOCC5)c([N+](=O)[O-])c4)c(Oc4cnc5[nH]ccc5c4)c3)CC2)=C(c2ccc(Cl)cc2)C1 [Venetoclax] + CCN(CCO)CCCOc1ccc2c(Nc3cc(CC(=O)Nc4cccc(F)c4)[nH]n3)ncnc2c1 [AZD2811] (first compound max 1 µM, 7x7, partner max 1 µM) | 0.74

---

test system: PANC-08-13 (Pancreatic Carcinoma); assay: Bliss excess, mean over the matrix (fraction); higher = more synergy;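 also: after 72 h of two-drug dosing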
Each item that follows carries a reported Bliss excess.

MOLECULE | Bliss excess
Cc1c2c(nn1C)CSCc1cc(n(C)n1)CSc1cc(c3ccccc3c1)OCCCc1c(C(=O)O)n(C)c3c-2c(Cl)ccc13 [AZD5991] + C[C@@H](Nc1cc(F)cc(F)c1)c1cc(C(=O)N(C)C)cc2c(=O)cc(N3CCOCC3)oc12 [AZD8186] (first compound max 1 µM, 7x7, partner max 3 µM) | 0.0187
C[C@@H](c1ccc2nccn2c1)n1nnc2ncc(-c3cnn(C)c3)nc21 [Savolitinib] + Cc1c2c(nn1C)CSCc1cc(n(C)n1)CSc1cc(c3ccccc3c1)OCCCc1c(C(=O)O)n(C)c3c-2c(Cl)ccc13 [AZD5991] (first compound max 1 µM, 7x7, partner max 1 µM) | -0.0452
C[C@@H](c1ccc2nccn2c1)n1nnc2ncc(-c3cnn(C)c3)nc21 [Savolitinib] + CN(CC[C@H](CSC1=CC=CC=C1)NC2=C(C=C(C=C2)S(=O)(=O)NC(=O)C3=CC=C(C=C3)N4CCC(CC4)[C@H](C5=CC=CC=C5C6=CC=C(C=C6)Cl)O)S(=O)(=O)C(F)(F)F)CCO [AZD4320] (first compound max 1 µM, 7x7, partner max 1 µM) | -0.0588
CN(CCO)CC[C@H](CSc1ccccc1)Nc1ccc(S(=O)(=O)NC(=O)c2ccc(N3CCC([C@@H](O)c4ccccc4-c4ccc(Cl)cc4)CC3)cc2)cc1S(=O)(=O)C(F)(F)F [AZD4320] + C[C@@H]1COCCN1C2=NC(=NC(=C2)C3(CC3)[S@](=N)(=O)C)C4=C5C=CNC5=NC=C4 [AZD6738] (first compound max 1 µM, 7x7, partner max 10 µM) | -0.019
COc1cc2c(cc1OCCCCCOc1cc3c(cc1OC)C(=O)N1C=C(C)C[C@H]1C=N3)N=C[C@@H]1CC(C)=CN1C2=O [SG3199] + O=C(c1cc(Cc2n[nH]c(=O)c3ccccc23)ccc1F)N1CCN(C(=O)C2CC2)CC1 [Olaparib] (first compound max 0.001 µM, 7x7, partner max 10 µM) | -0.0319
CN(CCO)CC[C@H](CSc1ccccc1)Nc1ccc(S(=O)(=O)NC(=O)c2ccc(N3CCC([C@@H](O)c4ccccc4-c4ccc(Cl)cc4)CC3)cc2)cc1S(=O)(=O)C(F)(F)F [AZD4320] + Cn1cnc2c(F)c(Nc3ccc(Br)cc3Cl)c(C(=O)NOCCO)cc21 [Selumetinib] (first compound max 1 µM, 7x7, partner max 3 µM) | 0.0195
